# Test system: Leishmania donovani
# assay-overview: Antileishmanial activity against amastigotes of Leishmania donovani at 10 ug/ml
# Assay type: functional, organism-based
Active and inactive are the calls of the source. No cut-off for these calls is given here.
recorded-metric: inhibition

FC(F)(F)c1ccc(O[C@H]2CCCC[C@@H]2n2ccnc2)cc1 (racemic) | inactive
FC(F)(F)c1ccc(O[C@H]2CCc3ccccc3[C@@H]2n2ccnc2)cc1 (racemic) | inactive
O=[N+]([O-])c1ccc(O[C@H]2CCc3ccccc3[C@@H]2n2ccnn2)cc1 (racemic) | inactive
O=[N+]([O-])c1ccc(O[C@H]2CCc3ccccc3[C@@H]2n2ccnn2)c(F)c1 (racemic) | inactive
O[C@H]1CCc2ccccc2[C@@H]1n1ccnn1 (racemic) | inactive

----------
The entries below are paired with their reported CC50.
# assay-overview: Cytotoxicity against mouse J774A1 cells by MTT assay
# Type: cell-based, J774.A1
recorded-metric: CC50 (µg/mL)

O=[N+]([O-])c1ccc(O[C@H]2CCCC[C@@H]2n2ccnc2)cc1 (racemic) | 8.27
O=[N+]([O-])c1ccc(O[C@H]2CCc3ccccc3[C@@H]2n2ccnc2)c(F)c1 (racemic) | 32.1
Clc1cccc(CO[C@H]2CCCC[C@@H]2n2ccnc2)c1 (racemic) | 12.8
Clc1ccc(Cl)c(CO[C@H]2CCc3ccccc3[C@@H]2n2ccnc2)c1 (racemic) | 22.3
Clc1cccc(CO[C@H]2CCc3ccccc3[C@@H]2n2ccnc2)c1 (racemic) | 15.5
O=[N+]([O-])c1ccc(O[C@H]2CCc3ccccc3[C@@H]2n2ccnc2)cc1 (racemic) | 21.4
NC[C@@H]1O[C@H](O[C@H]2[C@@H](O)[C@H](O[C@@H]3[C@@H](O)[C@H](N)C[C@H](N)[C@H]3O[C@H]3O[C@H](CO)[C@@H](O)[C@H](O)[C@H]3N)O[C@@H]2CO)[C@H](N)[C@@H](O)[C@@H]1O | 53.3
O=[N+]([O-])c1cc(C(F)(F)F)ccc1O[C@H]1CCCC[C@@H]1n1ccnc1 (racemic) | 22.1
O=[N+]([O-])c1cc(C(F)(F)F)ccc1O[C@H]1CCc2ccccc2[C@@H]1n1ccnc1 (racemic) | 20.1
Clc1ccc(CO[C@H]2CCCC[C@@H]2n2ccnc2)c(Cl)c1 (racemic) | 3.43
Clc1ccc(Cl)c(CO[C@H]2CCCC[C@@H]2n2ccnc2)c1 (racemic) | 27.2
FC(F)(F)c1ccc(O[C@H]2CCc3ccccc3[C@@H]2n2ccnc2)cc1 (racemic) | 52.5
Clc1cccc(CO[C@H]2CCc3ccccc3[C@@H]2n2ccnn2)c1 (racemic) | 30.2
O=[N+]([O-])c1ccc(O[C@H]2CCc3ccccc3[C@@H]2n2ccnc2)c(C(F)(F)F)c1 (racemic) | 10.7
O[C@H]1CCc2ccccc2[C@@H]1n1ccnn1 (racemic) | 35.6
O=[N+]([O-])c1ccc(O[C@H]2CCCC[C@@H]2n2ccnc2)c(F)c1 (racemic) | 14.2

----------
# assay-overview: Cytotoxicity against mouse J774A1 cells by MTT assay
# Format: cell-based, J774.A1
recorded-metric: CC50

O=[N+]([O-])c1ccc(O[C@H]2CCc3ccccc3[C@@H]2n2ccnn2)c(F)c1 (racemic) | > 100 µg/mL
O[C@H]1CCc2ccccc2[C@@H]1n1ccnc1 (racemic) | > 100 µg/mL
O=[N+]([O-])c1ccc(O[C@H]2CCc3ccccc3[C@@H]2n2ccnn2)cc1 (racemic) | > 100 µg/mL

Data provenance is ChEMBL document CHEMBL1681663.
